// data source = patent US9624238B2

Biological target: human notum pectinacetyltransferase (Homo sapiens, UniProt Q6P988)
Construct: made in house; unpurified conditioned medium used
Sequence (Q6P988 20-496): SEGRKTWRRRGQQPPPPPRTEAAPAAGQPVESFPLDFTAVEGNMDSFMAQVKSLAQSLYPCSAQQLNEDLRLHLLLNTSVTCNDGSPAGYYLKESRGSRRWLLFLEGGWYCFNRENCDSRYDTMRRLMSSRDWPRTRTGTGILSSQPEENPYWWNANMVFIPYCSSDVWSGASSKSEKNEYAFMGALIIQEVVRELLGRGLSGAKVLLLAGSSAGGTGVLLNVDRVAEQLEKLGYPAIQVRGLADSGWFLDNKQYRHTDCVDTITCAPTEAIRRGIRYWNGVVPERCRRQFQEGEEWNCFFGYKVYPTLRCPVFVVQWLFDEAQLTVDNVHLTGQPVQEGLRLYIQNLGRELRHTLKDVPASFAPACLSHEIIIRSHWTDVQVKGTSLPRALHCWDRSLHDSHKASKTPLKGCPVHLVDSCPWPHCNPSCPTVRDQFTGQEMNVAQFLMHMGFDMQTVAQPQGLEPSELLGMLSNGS
Assay: Binding assay (OPTS esterase substrate, fluorimetric)
Format: biochemical
Details: class symbols
pIC50: −log10 of the molar value.
Known pIC50 of a selection of compounds
observed_property: pIC50

>>> result("NC(=O)c1cc2c(s1)-c1ccccc1SCC2")
"> 7.30"
>>> result("CNc1ccc2c(c1)CCc1cc(C(=O)O)sc1-2")
"> 5.70"
>>> result("O=C(O)c1cc2c(s1)-c1c(Cl)ccc(Cl)c1OC2")
"> 7.00"

---

Target: human notum pectinacetyltransferase (Homo sapiens, UniProt Q6P988)
Construct: made in house; unpurified conditioned medium used
Experiment: Binding assay (OPTS esterase substrate, fluorimetric)
Type: biochemical
Details: class symbols
Method: Plasmid containing human notum pectinacetyltransferase in pcDNA3.1(+) vector was transfected into HEK (293 cells and clones were selecting by growing in presence of 400 ug/mL of G418. Condition media from these cells was used for the assay.
pIC50: −log10 of the molar value.
observed_property: pIC50

>>> result("Cc1ccc(C)c2c1OCc1cc(C(=O)O)sc1-2")
"> 5.70"
>>> result("O=C(O)c1cc2c(s1)-c1cc(Cl)ccc1OCC2")
"> 7.00"
>>> result("CC1Cc2cc(C(=O)O)sc2-c2ccc(Cl)cc21 (centres unmarked)")
"> 6.00"
>>> result("O=C(O)c1cc2c(s1)-c1ccc(Br)cc1CC2")
"> 6.00"
>>> result("O=C1CCN(C(=O)c2cc3c(s2)-c2ccc(Cl)c(Cl)c2OC3)C1")
"> 7.00"
>>> result("O=C(O)C1CCN(C(=O)c2cc3c(s2)-c2c(F)ccc(F)c2SC3)C1 (centres unmarked)")
"> 7.00"
>>> result("COc1ccc2c(c1Cl)CCc1cc(C(=O)N3CCC(F)C3)sc1-2 (centres unmarked)")
"> 7.30"
>>> result("COc1cc(F)c2c(c1)-c1sc(C(=O)O)cc1CC2")
"> 6.00"
>>> result("NC(=O)c1cc2c(s1)-c1c(F)ccc(F)c1SC2")
"> 7.30"
>>> result("NC(=O)c1cc2c(s1)-c1cc(Cl)cc(F)c1OC2")
"> 7.00"
>>> result("Cc1cc(C)c2c(c1)-c1sc(C(N)=O)cc1CO2")
"> 5.70"
>>> result("COc1ccc2c(c1Br)CCc1cc(C(=O)O)sc1-2")
"> 7.30"
>>> result("O=C(c1cc2c(s1)-c1cc(F)cc(F)c1SC2)N1CCCC1CO (centres unmarked)")
"> 6.00"
>>> result("NC(=O)c1cc2c(s1)-c1cc(F)c(F)cc1CC2")
"> 7.30"
>>> result("NC(=O)c1cc2c(s1)-c1ccc(Cl)cc1OC2")
"> 7.00"
>>> result("COc1ccc2c(c1F)CCc1cc(C(N)=O)sc1-2")
"> 7.00"
>>> result("CC1Cc2cc(C(=O)O)sc2-c2cc(F)c(F)cc21 (centres unmarked)")
"> 6.00"
>>> result("O=C1CCN(C(=O)c2cc3c(s2)-c2cc(F)cc(F)c2SC3)C1")
"> 7.30"
>>> result("Cc1cc(Cl)c2c(c1)-c1sc(C(N)=O)cc1CC2")
"> 7.30"
>>> result("O=C(O)C1CN(C(=O)c2cc3c(s2)-c2ccc(Cl)c(Cl)c2OC3)CC1c1ccccc1F (racemic)")
"> 7.30"
>>> result("Cc1ccc2c(c1)-c1sc(C(N)=O)cc1CS2")
"> 5.70"
>>> result("O=C(O)c1cc2c(s1)-c1sc(Cl)cc1CC2")
"> 7.30"
>>> result("N#Cc1cccc2c1CCc1cc(C(N)=O)sc1-2")
"> 6.00"
>>> result("NC(=O)c1cc2c(s1)-c1cc(F)ccc1OCC2")
"> 7.30"
>>> result("Cc1ccc(Cl)c2c1-c1sc(C(=O)O)cc1CO2")
"> 6.00"
>>> result("CC1Cc2cc(C(N)=O)sc2-c2cc(F)c(F)cc21 (centres unmarked)")
"> 7.30"
>>> result("O=C(c1cc2c(s1)-c1cc(F)c(Cl)cc1SC2)N1CC[C@H](F)C1")
"> 6.00"
>>> result("CCCCNC(=O)c1cc2c(s1)-c1ccccc1CC2")
"> 6.00"
>>> result("N#Cc1cccc2c1OCc1cc(C(=O)O)sc1-2")
"> 7.00"
>>> result("CCC1Cc2cc(C(N)=O)sc2-c2c(F)ccc(F)c21 (centres unmarked)")
"> 7.30"
>>> result("Cc1ccc2c(c1)-c1sc(C(=O)O)cc1CO2")
"> 6.00"
>>> result("O=C(O)c1cc2c(s1)-c1c(cccc1C(F)(F)F)OC2")
"> 6.00"
>>> result("NC(=O)c1cc2c(s1)-c1cc(F)c(F)c(F)c1SC2")
"> 7.30"
>>> result("Cc1ccc2c(c1C)-c1sc(C(=O)O)cc1CC2")
"> 5.70"
>>> result("COc1ccc2c(c1)CCc1cc(C(=O)O)sc1-2")
"> 5.70"
>>> result("N#CC1CCN(C(=O)c2cc3c(s2)-c2cccc(F)c2CC3)C1 (centres unmarked)")
"> 7.00"
>>> result("COc1ccc2c(c1C#N)CCc1cc(C(N)=O)sc1-2")
"> 6.00"
>>> result("O=C(O)c1cc2c(s1)-c1cc(Cl)c(C(F)(F)F)cc1OC2")
"> 6.00"
>>> result("NC(=O)c1cc2c(s1)-c1cccc(Cl)c1OC2")
"> 6.00"
>>> result("CCOC(=O)c1cc2c(s1)-c1cc(C)cc(F)c1CC2")
"> 6.00"
>>> result("CC1Cc2cc(C(N)=O)sc2-c2c(F)ccc(F)c21 (centres unmarked)")
"> 7.30"
>>> result("CC1Cc2cc(C(=O)O)sc2-c2ccccc21 (centres unmarked)")
"> 6.00"
>>> result("Cc1ccc2c(c1Cl)CCc1cc(C(=O)O)sc1-2")
"> 7.00"
>>> result("Cc1c(F)ccc2c1OCc1cc(C(=O)O)sc1-2")
"> 6.00"

---

Property: pEC50; scope: individual compounds
Biological target: human notum pectinacetyltransferase (Homo sapiens, UniProt Q6P988)
Construct: made in house; unpurified conditioned medium used
Assay: Reporter assay (CellSensor LEF/TCF-bla FreeStyle 293F cells, Wnt3a and notum conditioned media)
Assay type: cell-based
Conditions: class symbols
Experimental: Plasmid containing human notum pectinacetyltransferase in pcDNA3.1(+) vector was transfected into HEK (293 cells and clones were selecting by growing in presence of 400 ug/mL of G418. The clone containing highest expression of human notum pectinacetyltransferase in the conditioned media was maintained for all future activity assays. L cells overexpressing and secreting Wnt3a into the conditioned media were purchased from ATCC. The assay protocol was as follows. […]
pEC50: −log10 of the molar value.
observed_property: pEC50

>>> result("CC(C)(C#N)NC(=O)c1cc2c(s1)-c1ccccc1CC2")
"> 6.30"
>>> result("CC(=O)N1Cc2cc(C(=O)O)sc2-c2ccccc21")
"> 7.00"
>>> result("CNC(=O)c1cc2c(s1)-c1ccccc1CC2")
"> 7.30"
>>> result("COc1ccc2c(c1Cl)CCc1cc(C(N)=O)sc1-2")
"> 7.30"
>>> result("COC(=O)c1cc2c(s1)-c1ccccc1CC2")
"> 7.30"
>>> result("O=C(NCCN1CCOCC1)c1cc2c(s1)-c1ccc(Cl)c(F)c1OC2")
"> 6.30"
>>> result("O=C(O)c1cc2c(s1)-c1ccccc1OCC2")
"> 7.30"
>>> result("N#CCNC(=O)c1cc2c(s1)-c1ccccc1CC2")
"> 7.30"
>>> result("CC1Cc2cc(C(N)=O)sc2-c2cc(F)c(F)cc21 (centres unmarked)")
"> 7.30"
>>> result("N#Cc1cccc2c1OCc1cc(C(N)=O)sc1-2")
"> 7.30"
>>> result("O=C(c1cc2c(s1)-c1cc(F)cc(F)c1SC2)N1CCC(O)C1 (centres unmarked)")
"> 7.30"

---

Molecular target: human notum pectinacetyltransferase (Homo sapiens)
Construct: made in house; unpurified conditioned medium used
Assay: Binding assay (OPTS esterase substrate, fluorimetric)
Assay type: biochemical
Settings: class symbols
pIC50: −log10 of the molar value.
observed_property: pIC50

>>> result("Cc1ccc2c(c1)CCc1cc(C(=O)O)sc1-2")
"> 6.00"
>>> result("CN(C)c1ccc2c(c1)CCc1cc(C(=O)O)sc1-2")
"> 5.70"
>>> result("Cc1cc(F)cc2c1OCc1cc(C(=O)O)sc1-2")
"> 7.00"
>>> result("NC(=O)c1cc2c(s1)-c1cc(F)cc(F)c1CC2")
"> 7.30"
>>> result("O=C(c1cc2c(s1)-c1cccc(F)c1CC2)N1CCC(F)C1 (centres unmarked)")
"> 6.00"
>>> result("NC(=O)c1cc2c(s1)-c1cc(Cl)c(Cl)cc1CC2")
"> 6.00"
>>> result("Cc1cc(Cl)cc2c1OCc1cc(C(N)=O)sc1-2")
"> 6.00"
>>> result("NC(=O)c1cc2c(s1)-c1ccc(F)cc1CC2")
"> 7.30"
>>> result("COc1ccc2c(c1Br)CCc1cc(C(N)=O)sc1-2")
"> 7.30"
>>> result("O=C(O)c1cc2c(s1)-c1cccc(Cl)c1OC2")
"> 6.00"
>>> result("O=C(O)c1cc2c(s1)-c1cc(F)c(F)cc1OC2")
"> 7.00"
>>> result("Cc1cccc2c1OCc1cc(C(N)=O)sc1-2")
"> 6.00"
>>> result("O=C(NS(=O)(=O)O)c1cc2c(s1)-c1ccccc1CC2")
"> 5.70"
>>> result("COc1ccc2c(c1)OCc1cc(C(N)=O)sc1-2")
"> 6.00"
>>> result("O=C(O)c1cc2c(s1)-c1cccc(Cl)c1SC2")
"> 5.70"
>>> result("NC(=O)c1cc2c(s1)-c1ccccc1S(=O)(=O)C2")
"> 6.00"
>>> result("CCOC(=O)c1cc2c(s1)-c1ccc(C)c([N+](=O)[O-])c1CC2")
"> 7.00"
>>> result("CC1(C)Cc2cc(C(N)=O)sc2-c2c(F)ccc(F)c21")
"> 7.30"
>>> result("O=C(c1cc2c(s1)-c1cc(F)cc(F)c1SC2)N1CCC(O)C1 (centres unmarked)")
"> 7.30"
>>> result("O=C(O)c1cc2c(s1)-c1cc(F)cc(Cl)c1SC2")
"> 7.30"
>>> result("O=C(O)c1cc2c(s1)-c1cc(F)c(F)cc1SC2")
"> 7.00"
>>> result("CC1Cc2cc(C(N)=O)sc2-c2ccc(Cl)cc21 (centres unmarked)")
"> 7.00"
>>> result("O=C(NCCO)c1cc2c(s1)-c1ccccc1CC2")
"> 6.00"
>>> result("COc1ccc2c(c1Cl)CCc1cc(C(N)=O)sc1-2")
"> 7.30"
>>> result("Cc1cc2c(cc1C)-c1sc(C(=O)O)cc1CO2")
"> 6.00"
>>> result("COC(=O)C1CN(C(=O)c2cc3c(s2)-c2ccc(Cl)c(F)c2OC3)CC1c1ccccc1F (centres unmarked)")
"> 7.00"
>>> result("CCC1Cc2cc(C(=O)O)sc2-c2c(F)ccc(F)c21 (centres unmarked)")
"> 6.00"
>>> result("NC(=O)c1cc2c(s1)-c1c(cccc1C(F)(F)F)OC2")
"> 7.30"
>>> result("COC(=O)c1cc2c(s1)-c1ccccc1OC2")
"> 6.00"
>>> result("Cc1cc(C)c2c(c1)OCc1cc(C(N)=O)sc1-2")
"> 5.70"
>>> result("CCOC(=O)c1cc2c(s1)-c1ccccc1CC2")
"> 5.70"
>>> result("N#Cc1cccc2c1OCc1cc(C(N)=O)sc1-2")
"> 6.00"
>>> result("O=C(O)c1cc2c(s1)-c1ccc(F)cc1CC2")
"> 6.00"
>>> result("CCOC(=O)c1cc2c(s1)-c1cc(C)cc(C)c1CC2")
"> 5.70"
>>> result("O=C(O)c1cc2c(s1)-c1c(F)ccc(Cl)c1OC2")
"> 6.00"
>>> result("NC(=O)c1cc2c(s1)-c1cc(F)ccc1CCC2")
"> 7.30"
>>> result("O=C(O)c1cc2c(s1)-c1cc(F)ccc1OCC2")
"> 7.30"
>>> result("O=C(O)c1cc2c(s1)-c1cc(Br)ccc1OC2")
"> 7.00"
